Tested on: Mtb H37Ra
Experiment: In vitro antimycobacterial activity, Microplate Alamar Blue Assay (MABA)
Type: cell-based, Mycobacterium tuberculosis
Settings: IC50 HepG2 (µM)/MIC Mtb H37Ra (µM)
value-type: SI (selectivity index)
Answers are plain numbers.

Solved cases (2 shown):
>>> result_number("Cc1ccc(CNC(=O)c2cnc3ccccc3n2)cc1")
3.11
>>> result_number("O=C(NCc1cccc(O)c1)c1cnc2ccccc2n1")
5.40

# return SI (selectivity index) for each item in the list
1. O=C(NCc1cccc(Cl)c1)c1cnc2ccccc2n1
2. O=C(NCc1cccc(C(F)(F)F)c1)c1cnc2ccccc2n1
3. O=C(NCc1cccc(F)c1)c1cnc2ccccc2n1
4. O=C(NCc1ccc(Cl)c(Cl)c1)c1cnc2ccccc2n1
5. COc1ccc(CNC(=O)c2cnc3ccccc3n2)cc1
6. O=C(NCCCc1ccccc1)c1cnc2ccccc2n1 [Compound 33, N-phenylpropylquinoxaline-2-carboxamide]

[out]
1. 5.34
2. 4.12
3. 8.92
4. 2.80
5. 16.1
6. 2.7

SI (selectivity index) in this record for Cc1ccccc1CNC(=O)c1cnc2ccccc2n1 : 5.60
